Each record here notes measured Extent of compound-induced caspase 3.
# Test system: BimEL, ATR, caspase 3, caspase 8, caspase 9, PARP in HeLa cells
# assay notes: Western blot analysis of apoptosis proteins
# Type: cell-based
# details: 5 μM, 24 h treatment, untreated control 0%, etoposide-induced activation 100%
Could you give me the number in %? Just the number is fine.

// worked examples, Extent of compound-induced caspase 3 included
# compound, tgt, Extent of compound-induced caspase 3 (%)
records = [
    ("COc1ccc(N[C@@H]2c3cc4c(cc3[C@@H](c3cc(OC)c(OC)c(OC)c3)[C@H]3C(=O)OC[C@@H]32)OCO4)cc1Cl [Compound 18]", "BimEL, ATR, caspase 3, caspase 8, caspase 9, PARP in HeLa cells", 56),
    ("COc1ccc(N[C@@H]2c3cc4c(cc3[C@@H](c3cc(OC)c(O)c(OC)c3)[C@H]3C(=O)OC[C@@H]32)OCO4)cc1Br [Compound 17′]", "BimEL, ATR, caspase 3, caspase 8, caspase 9, PARP in HeLa cells", 43),
    ("COc1ccc(N[C@@H]2c3cc4c(cc3[C@@H](c3cc(OC)c(O)c(OC)c3)[C@H]3C(=O)OC[C@@H]32)OCO4)cc1Cl [Compound 18′]", "BimEL, ATR, caspase 3, caspase 8, caspase 9, PARP in HeLa cells", 69),
]

// below: Extent of compound-induced caspase 3 requested for another compound
q: Consider the compound COc1ccc(N[C@@H]2c3cc4c(cc3[C@@H](c3cc(OC)c(OC)c(OC)c3)[C@H]3C(=O)OC[C@@H]32)OCO4)cc1Br [Compound 17] and give its recorded Extent of compound-induced caspase 3.
a: 37

====

# Tested on: HeLa cells
# assay notes: Cell cycle analysis by flow cytometry (PI)
# Assay type: cell-based
# details: HeLa, 0.1 μM, 6, 12, 24 and 48 h
# Procedure: The HeLa cell line was used for cell cycle analysis. Progression through the cell cycle was assessed by flow cytometry DNA determination with Propidium Iodide (PI). […] Flow cytometric analysis was performed using a BD accur C6 flow cytometer. Analysis was with Mod FIT software.
recorded metric: Ratio of cell cycle arrest (of total cells)

# compound, recorded measurement
rows = [
    ("COc1ccc(N[C@@H]2c3cc4c(cc3[C@@H](c3cc(OC)c(O)c(OC)c3)[C@H]3C(=O)OC[C@@H]32)OCO4)cc1Cl [Compound 18′]", "less than 10%"),
    ("COc1ccc(N[C@@H]2c3cc4c(cc3[C@@H](c3cc(OC)c(O)c(OC)c3)[C@H]3C(=O)OC[C@@H]32)OCO4)cc1F [Compound 19′]", "less than 10%"),
    ("COc1ccc(N[C@@H]2c3cc4c(cc3[C@@H](c3cc(OC)c(OC)c(OC)c3)[C@H]3C(=O)OC[C@@H]32)OCO4)cc1Cl [Compound 18]", "less than 10%"),
]

====

# Tested on: A549
# assay notes: MTT cytotoxicity assay, A549
# Assay type: cell-based
# details: drug exposure 48 h, mean ± SD (n = 3), read-out: Cytotoxic activity (IC50) A549
recorded metric: pIC50
pIC50 here is simply -log10 of the concentration when that concentration is written in mol/L.

q: State, in one line, measured pIC50 of COc1ccc(NC2c3cc4c(cc3C(c3cc(OC)c(OC)c(OC)c3)C3C(=O)OCC23)OCO4)cc1F (stereo not shown) [Compound 19]
a: 5.75
